Molecular target: Cytochrome P450 2C9 (Homo sapiens) (UniProt P11712)
Sequence (P11712 whole entry, looked up): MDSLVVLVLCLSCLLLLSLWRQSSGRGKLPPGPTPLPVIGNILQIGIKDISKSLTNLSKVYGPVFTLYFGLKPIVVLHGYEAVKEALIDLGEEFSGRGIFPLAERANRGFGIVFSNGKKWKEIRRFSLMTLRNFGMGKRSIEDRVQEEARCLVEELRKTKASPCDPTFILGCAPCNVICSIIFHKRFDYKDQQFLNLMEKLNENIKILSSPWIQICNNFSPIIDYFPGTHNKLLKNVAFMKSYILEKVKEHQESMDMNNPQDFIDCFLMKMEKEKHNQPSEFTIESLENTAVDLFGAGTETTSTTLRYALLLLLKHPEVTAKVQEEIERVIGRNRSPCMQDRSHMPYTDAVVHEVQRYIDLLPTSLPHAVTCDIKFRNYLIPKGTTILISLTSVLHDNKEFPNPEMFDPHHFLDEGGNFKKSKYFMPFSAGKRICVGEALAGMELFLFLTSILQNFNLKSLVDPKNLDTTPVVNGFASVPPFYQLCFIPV
Experiment: qHTS Assay for Inhibitors and Substrates of Cytochrome P450 2C9 (AID 883); also: nearly all actives have a fitted effect of over 60% in size
Details: recombinant CYP2C9, luciferin-H luminescence, 60 min; series mostly up to 57.1 µM
Results filed as inconclusive are left out. Activity calls are given as the source filed them. Calls follow the shape of the dose curve; as a rule, active = well fitted inhibition curve with a large enough effect; inconclusive = small, poorly fitted or top-dose-only effect; inactive = no such curve, though single readings can be large or run the other way.
Bench note: report the call from 1.0 for active, 0.0 for inactive

{"columns": ["Smiles Record", "System Under Test", "Label Class"],
 "data": [
  ["CCN(CC)C(=O)N[C@H]1C[C@H]2c3cccc4[nH]cc(c34)C[C@@H]2N(C)C1", "Cytochrome P450 2C9 (Homo sapiens) (UniProt P11712)", 0.0],
  ["c1cc2cc(c1)C[n+]1ccc(c3ccccc31)NCc1ccc(cc1)CNc1cc[n+](c3ccccc13)C2", "Cytochrome P450 2C9 (Homo sapiens) (UniProt P11712)", 1.0]
]}

Please let me know the test result on file for CC[C@]1(O)C(=O)OCc2c1cc1n(c2=O)Cc2cc3ccccc3nc2-1 .
0.0

Please let me know the test result on file for CN[C@H]1[C@H]2[C@H]3CCN2C[C@@H]1O3 .
0.0
